Quick list: IC50 per entry.
Tested on: H1975 EGFR-L858R/T790M
assay summary: Cell proliferation inhibition experiment (CCK-8), H1975
Type: cell-based
particulars: Homo sapiens, NCI-H1975, 72 h

Consider the reported IC50 for these compounds:
CN1CCN(c2ccc(Nc3nc(N[C@H]4CC[C@@H](CO)CC4)c4c(C(=O)c5ccc(F)cc5)c[nH]c4n3)cc2)CC1 : 0.1 to 1 µM
CN1CCN(c2ccc(Nc3nc(N[C@H]4CC[C@H](O)CC4)c4c(C(=O)c5ccc(F)cc5)c[nH]c4n3)cc2)CC1 : 0.1 to 1 µM

### Prompt IC50 for CN1CCN(c2ccc(Nc3nc(N[C@H]4CC[C@H](CO)CC4)c4c(C(=O)c5ccc(F)cc5)c[nH]c4n3)cc2F)CC1 ?
### Response 0.1 to 1 µM

---

Quick list: IC50 per entry.
subject of test: EGFR-Del19/T790M/C797S kinase (Homo sapiens, UniProt P00533, C797S/T790M, form not given)
Sequence (P00533 25-1210 T790M/C797S limits assumed, form open): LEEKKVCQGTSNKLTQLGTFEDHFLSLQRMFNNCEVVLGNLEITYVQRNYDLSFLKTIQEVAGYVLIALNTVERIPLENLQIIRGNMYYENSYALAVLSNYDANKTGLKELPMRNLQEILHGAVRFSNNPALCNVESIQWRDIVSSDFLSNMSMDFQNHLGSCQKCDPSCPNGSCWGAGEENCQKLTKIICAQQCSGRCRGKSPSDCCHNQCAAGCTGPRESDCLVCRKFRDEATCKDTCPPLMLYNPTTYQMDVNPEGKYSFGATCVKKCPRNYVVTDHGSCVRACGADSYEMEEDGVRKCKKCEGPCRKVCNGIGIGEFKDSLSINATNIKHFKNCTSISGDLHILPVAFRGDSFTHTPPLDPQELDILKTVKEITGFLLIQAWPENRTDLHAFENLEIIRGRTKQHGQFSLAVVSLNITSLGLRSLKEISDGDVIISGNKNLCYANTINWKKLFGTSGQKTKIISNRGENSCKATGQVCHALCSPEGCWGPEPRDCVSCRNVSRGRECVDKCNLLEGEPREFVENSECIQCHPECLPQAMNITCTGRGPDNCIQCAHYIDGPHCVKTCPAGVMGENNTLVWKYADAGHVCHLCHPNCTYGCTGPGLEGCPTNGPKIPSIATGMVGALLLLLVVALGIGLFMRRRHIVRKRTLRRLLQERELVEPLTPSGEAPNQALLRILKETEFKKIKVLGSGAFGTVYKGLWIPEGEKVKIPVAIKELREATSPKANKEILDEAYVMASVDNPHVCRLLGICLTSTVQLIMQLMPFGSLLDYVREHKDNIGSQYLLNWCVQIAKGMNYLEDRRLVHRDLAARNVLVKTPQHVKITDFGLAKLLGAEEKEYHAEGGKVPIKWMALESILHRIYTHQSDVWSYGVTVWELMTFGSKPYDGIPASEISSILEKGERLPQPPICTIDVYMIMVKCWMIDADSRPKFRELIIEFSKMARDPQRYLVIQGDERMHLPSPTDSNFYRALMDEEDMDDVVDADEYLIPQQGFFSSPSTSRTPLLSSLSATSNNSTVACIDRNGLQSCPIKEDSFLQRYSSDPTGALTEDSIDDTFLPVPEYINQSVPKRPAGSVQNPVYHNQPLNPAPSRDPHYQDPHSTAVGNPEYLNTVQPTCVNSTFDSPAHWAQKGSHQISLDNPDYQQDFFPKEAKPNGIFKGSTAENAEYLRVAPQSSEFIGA
assay summary: In-vitro enzyme experiment 2 (HTRF kinase assay), EGFR Del19 T790M C797S
Assay type: biochemical
particulars: read-out: enzyme inhibition IC50 (nM) EGFR-Del19/T790M/C797S
Procedure: The specific experiment was as follows: • 1. […] [formula] • 3.3 Calculation of IC50 value of compound and drawing dose-effect curve of compound • IC50 values were calculated using GraphPad 6.0 by applying a non-linear regression curve (dose-effect relationship-variable slope) of the logarithm of the compound concentration versus the inhibition rate. […]

Consider the reported IC50 for these molecules:
CN1CCN(c2ccc(Nc3nc(N[C@H]4CCCOC4)c4c(C(=O)c5ccc(F)cc5)c[nH]c4n3)cc2)CC1 [Example 57] : 100 to 600 nM
CN1CCN(c2ccc(Nc3nc(NCC4CCOCC4)c4c(C(=O)c5ccc(F)cc5)c[nH]c4n3)cc2)CC1 [Example 59] : 100 to 600 nM
O=C(c1ccccc1)c1c[nH]c2nc(Nc3ccc(N4CCOCC4)cc3)nc(N[C@H]3CC[C@H](CO)CC3)c12 [Example 98] : 100 to 600 nM

### Prompt IC50 for COc1cc(N2CCN(C)CC2)ccc1Nc1nc(N[C@H]2CC[C@@H](CO)CC2)c2c(C(=O)c3ccc(F)cc3)c[nH]c2n1 [Example 106] ?
### Response 10 to 100 nM

### Prompt IC50 for CN1CCC(Nc2nc(Nc3ccc(N4CCN(C)CC4)cc3)nc3[nH]cc(C(=O)c4ccc(F)cc4)c23)CC1 [Example 85] ?
### Response 100 to 600 nM

---

subject of test: EGFR D770-N771 ins NPG kinase (Homo sapiens (Human), UniProt P00533, INS770NPG)
Sequence (P00533 other isoform, or with tags, fused parts or gaps del 1-668/ins NPG behind 770 limits assumed): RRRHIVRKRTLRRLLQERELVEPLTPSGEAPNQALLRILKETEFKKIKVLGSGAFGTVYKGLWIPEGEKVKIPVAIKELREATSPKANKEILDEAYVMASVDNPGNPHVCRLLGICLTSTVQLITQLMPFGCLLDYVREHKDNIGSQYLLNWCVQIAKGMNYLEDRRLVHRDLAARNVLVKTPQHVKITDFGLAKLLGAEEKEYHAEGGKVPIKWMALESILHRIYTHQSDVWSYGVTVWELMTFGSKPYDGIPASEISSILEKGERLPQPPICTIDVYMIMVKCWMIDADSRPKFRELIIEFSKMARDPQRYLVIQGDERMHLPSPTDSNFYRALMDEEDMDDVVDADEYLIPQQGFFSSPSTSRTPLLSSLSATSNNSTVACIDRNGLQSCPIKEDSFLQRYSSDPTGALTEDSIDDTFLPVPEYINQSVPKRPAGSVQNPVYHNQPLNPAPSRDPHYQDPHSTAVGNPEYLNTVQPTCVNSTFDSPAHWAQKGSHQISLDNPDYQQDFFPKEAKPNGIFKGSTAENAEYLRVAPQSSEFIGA
assay summary: In-vitro enzyme experiment 1 (HTRF kinase assay), D770-N771 ins NPG kinase
measured parameter: pIC50
Please keep in mind that pIC50 is minus log10 of the molar concentration; only the number is needed.

CN1CCN(c2ccc(Nc3nc(NC45CC6CC(CC(O)(C6)C4)C5)c4c(C(=O)c5ccc(F)cc5)c[nH]c4n3)cc2)CC1 : 8.18
CN1CCN(c2ccc(Nc3nc(NC45CC6CC(C4)C(O)C(C6)C5)c4c(C(=O)c5ccc(F)cc5)c[nH]c4n3)cc2)CC1 (stereo not shown) : 8.34
C=CC(=O)N1CC[C@@H](Nc2nc(Nc3cnn(C)c3)nc3[nH]cc(C(=O)c4ccc(F)cc4)c23)C1 : 8.52

### Prompt pIC50 for CN1CCN(c2ccc(Nc3nc(NC4CC5(COC5)C4)c4c(C(=O)c5ccc(F)cc5)c[nH]c4n3)cc2)CC1 ?
### Response 7.55
